SYSTEM UNDER TEST: HDAC2 (Homo sapiens)
Construct: purchased Reaction Biology Corporation (assay run by the CRO)
Sequence (Q92769 whole entry): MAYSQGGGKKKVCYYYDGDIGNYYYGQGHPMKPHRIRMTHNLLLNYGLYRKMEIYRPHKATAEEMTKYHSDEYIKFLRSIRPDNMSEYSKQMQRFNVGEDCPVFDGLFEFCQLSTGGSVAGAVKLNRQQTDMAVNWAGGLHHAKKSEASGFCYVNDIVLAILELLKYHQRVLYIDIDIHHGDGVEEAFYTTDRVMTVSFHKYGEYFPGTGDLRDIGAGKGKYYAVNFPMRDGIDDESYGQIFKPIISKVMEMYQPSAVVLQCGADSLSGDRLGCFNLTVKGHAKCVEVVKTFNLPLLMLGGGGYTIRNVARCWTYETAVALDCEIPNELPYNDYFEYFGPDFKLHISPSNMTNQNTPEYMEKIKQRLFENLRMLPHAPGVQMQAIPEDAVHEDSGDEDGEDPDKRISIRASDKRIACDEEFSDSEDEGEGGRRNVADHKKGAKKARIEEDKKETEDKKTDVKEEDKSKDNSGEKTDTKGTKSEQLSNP
EXPERIMENT DESCRIPTION: HDAC2 inhibition, full IC50 measurement (Reaction Biology; fluorogenic p53 peptide RHKK(Ac)AMC)
Assay type: biochemical
CONDITIONS: Conc. 5.08E-10 M, t2
Peptide text beside a SMILES is read from it.
METRIC NAME: HDAC2 activity raw data (signal)
# output: bare number, no unit

Would you please look over these solved cases?
# COMPOUND, HDAC2 activity raw data (signal)
data = [
    ("N=C(N)NCCC[C@H]1NC(=O)[C@@H]2CCCN2C(=O)[C@H](CO)NC(=O)[C@@H](Cc2c[nH]cn2)NC(=O)[C@H](CCCCCS)NC(=O)[C@H](CCCCN)NC(=O)[C@H](Cc2ccc(O)cc2)NC(=O)[C@H]2CCCN2C(=O)[C@@H](CCC(N)=O)NC1=O [des3.1.0, SHA-dHis-Ser-Pro-dArg-dGln-dPro-Tyr-Lys] (HELM PEPTIDE1{K.[O=C([C@H](CCCCCS)N[*:1])[*:2]].[dH].S.P.[dR].[dQ].[dP].Y}$PEPTIDE1,PEPTIDE1,1:R1-9:R2$$$V2.0)", 674996),
    ("CSCC[C@H]1NC(=O)[C@@H](CO)NC(=O)[C@H](CC(N)=O)NC(=O)[C@H](CC(=O)O)NC(=O)[C@@H]([C@H](C)O)NC(=O)[C@H](Cc2c[nH]c3ccccc23)NC(=O)[C@H](CCCCCS)NC(=O)[C@H](CCCCN)NC(=O)[C@@H](CC(=O)O)NC1=O [des2.1.1, SHA-Trp-dThr-Asp-Asn-dSer-dMet-dAsp-Lys] (HELM PEPTIDE1{D.N.[dS].[dM].[dD].K.[O=C([C@H](CCCCCS)N[*:1])[*:2]].W.[dT]}$PEPTIDE1,PEPTIDE1,1:R1-9:R2$$$V2.0)", 1036443),
    ("CCCC[C@H]1NC(=O)[C@H](Cc2ccccc2)NC(=O)[C@H](CCCCCS)NC(=O)[C@@H](CCCNC(=N)N)NC(=O)[C@H](C)NC(=O)[C@@H](CO)NC(=O)[C@@H](C)NC(=O)[C@H](CCCCN)NC1=O [des4.3.1.3, SHA-Phe-dNle-Lys-dAla-dSer-Ala-dArg] (HELM PEPTIDE1{A.[dR].[O=C([C@H](CCCCCS)N[*:1])[*:2]].F.[CCCC[C@@H](N[*:1])C(=O)[*:2]].K.[dA].[dS]}$PEPTIDE1,PEPTIDE1,1:R1-8:R2$$$V2.0)", 1730008),
    ("CC(C)[C@@H]1NC(=O)[C@H](CCCNC(=N)N)NC(=O)[C@@H](CC(=O)O)NC(=O)[C@H](CO)NC(=O)[C@@H](CO)NC(=O)[C@@H](CCC(=O)O)NC(=O)[C@H](Cc2ccc(O)cc2)NC(=O)[C@H](CCCCCS)NC1=O [des4.2.0, SHA-Tyr-dGlu-dSer-Ser-dAsp-Arg-Val] (HELM PEPTIDE1{R.V.[O=C([C@H](CCCCCS)N[*:1])[*:2]].Y.[dE].[dS].S.[dD]}$PEPTIDE1,PEPTIDE1,1:R1-8:R2$$$V2.0)", 1816576),
]

Continue with the compound presented below.
Exercise: Dear colleague, I am looking for the recorded HDAC2 activity raw data (signal) of the following compound: NCCCC[C@@H]1NC(=O)[C@@H]2CCCN2C(=O)[C@H](CC(N)=O)NC(=O)[C@H](CCCCCS)NC(=O)CNC(=O)[C@H](Cc2c[nH]c3ccccc23)NC(=O)[C@@H](CCCCN)NC(=O)[C@H](CCC(N)=O)NC1=O [des1.1.0, SHA-Asn-Pro-Lys-Gln-dLys-Trp-Gly] (HELM PEPTIDE1{G.[O=C([C@H](CCCCCS)N[*:1])[*:2]].N.P.K.Q.[dK].W}$PEPTIDE1,PEPTIDE1,1:R1-8:R2$$$V2.0)
Solution: 1187103
